inhibition at 2 µM listing for selected compounds.
- Test system: A549
- experimental protocol: Antiproliferative activity against human A549 cells assessed as inhibition of cell proliferation at 2 uM after 72 hrs by MTT assay relative to control
- Type: functional
- cond: A549, 72 h
quantity: inhibition at 2 µM (%)

{"columns": ["compound", "quantity", "value"],
 "data": [
  ["COc1ccc(C(=O)C(Cl)Cl)cc1Cl", "inhibition at 2 µM", 17],
  ["CC1CCOc2ccc(C(=O)C(Cl)Cl)cc21 (stereo not drawn)", "inhibition at 2 µM", 24.1],
  ["O=C(c1ccc(-c2ccccc2)cc1)C(Cl)Cl", "inhibition at 2 µM", 22.5],
  ["CC(C)Oc1ccc(C(=O)C(Cl)Cl)cc1[N+](=O)[O-]", "inhibition at 2 µM", 27.7],
  ["N#Cc1ccc(C(=O)C(Cl)Cl)cc1", "inhibition at 2 µM", 8.5],
  ["O=C(c1ccc(Cl)cc1Cl)C(Cl)Cl", "inhibition at 2 µM", 1.8],
  ["Cc1ccc(C(=O)C(Cl)Cl)cc1[N+](=O)[O-]", "inhibition at 2 µM", 12.6],
  ["O=C(c1cccc([N+](=O)[O-])c1)C(Cl)Cl", "inhibition at 2 µM", 13.4],
  ["CCCCCCOc1ccc(C(=O)C(Cl)Cl)cc1[N+](=O)[O-]", "inhibition at 2 µM", 1.2],
  ["O=C(c1ccc(OCCCBr)cc1)C(Cl)Cl", "inhibition at 2 µM", 21.7],
  ["CC(C)c1ccc(C(=O)C(Cl)Cl)cc1", "inhibition at 2 µM", 24.4],
  ["O=C(c1ccccc1[N+](=O)[O-])C(Cl)Cl", "inhibition at 2 µM", 1.9],
  ["CCOc1ccc(C(=O)C(Cl)Cl)cc1", "inhibition at 2 µM", 18.9]
]}

---

- Species: Sus scrofa
- experimental protocol: Inhibition of porcine PDK1 assessed as activation of pyruvate dehydrogenase complex at 1 uM measured after 3 mins
Activity calls are given as the source filed them. The calls are words filed in the database; no cut-off is given here.
Outcome codes: active, inactive

{"columns": ["structure string", "assigned class"],
 "data": [
  ["CC(C)Oc1ccc(C(=O)C(Cl)Cl)cc1[N+](=O)[O-]", "active"],
  ["O=C(c1ccccc1)C(Cl)Cl", "inactive"],
  ["CCCCOc1ccc(C(=O)C(Cl)Cl)cc1[N+](=O)[O-]", "active"],
  ["CC(C)Oc1ccc(C(=O)CCl)cc1[N+](=O)[O-]", "active"],
  ["CCCCCCOc1ccc(C(=O)C(Cl)Cl)cc1[N+](=O)[O-]", "active"],
  ["O=C(c1ccc(OCCBr)c([N+](=O)[O-])c1)C(Cl)Cl", "active"],
  ["O=C(c1cccnc1)C(Cl)(Cl)Cl", "inactive"],
  ["O=C(Oc1ccccc1)C(Cl)Cl", "inactive"],
  ["CCCCCOc1ccc(C(=O)C(Cl)Cl)cc1[N+](=O)[O-]", "active"],
  ["O=C(c1ccc(OCCCCBr)c([N+](=O)[O-])c1)C(Cl)Cl", "active"],
  ["CCCOc1ccc(C(=O)C(Cl)Cl)cc1[N+](=O)[O-]", "active"]
]}

---

- tgt: [Pyruvate dehydrogenase (acetyl-transferring)] kinase isozyme 1, mitochondrial (Homo sapiens, UniProt Q15118)
- experimental protocol: Inhibition of recombinant human N-terminal His6/Sumo-tagged PDK1 (29 to 436 residues) expressed in Escherichia coli BL21 at 1 uM by kinase-glo luminescence assay relative to control
Calls of active or inactive are those of the source. No cut-off for these calls is given here.

{"columns": ["compound", "inhibition"],
 "data": [
  ["O=C(c1ccccc1C(F)(F)F)C(Cl)Cl", "inactive"],
  ["O=C(Oc1ccccc1)C(Cl)Cl", "inactive"],
  ["O=C(c1cccc(CCl)c1)C(Cl)Cl", "15.1%"],
  ["O=C(c1ccccn1)C(Cl)Cl", "inactive"],
  ["CCCCCOc1ccc(C(=O)C(Cl)Cl)cc1[N+](=O)[O-]", "Active"],
  ["O=C(c1ccc(OCCCBr)c([N+](=O)[O-])c1)C(Cl)Cl", "Active"],
  ["O=C(c1ccccc1[N+](=O)[O-])C(Cl)Cl", "inactive"],
  ["O=C(Nc1ccccc1)C(Cl)Cl", "inactive"],
  ["CC1CCOc2ccc(C(=O)C(Cl)Cl)cc21 (stereo not drawn)", "19.7 to 67.9%"],
  ["O=C(c1cccnc1)C(Cl)(Cl)Cl", "inactive"],
  ["CCc1ccc(C(=O)C(Cl)Cl)cc1", "44%"],
  ["CCOc1ccc(C(=O)C(Cl)Cl)cc1", "19.7 to 67.9%"],
  ["CCCCOc1ccc(C(=O)C(Cl)Cl)cc1", "19.7 to 67.9%"],
  ["O=C(c1ccccc1)C(Cl)Cl", "inactive"],
  ["CC(C)Oc1ccc(C(=O)CCl)cc1[N+](=O)[O-]", "Active"],
  ["O=C(c1ccc(OCc2ccccc2)c([N+](=O)[O-])c1)C(Cl)Cl", "Active"],
  ["Cc1cc(C(=O)C(Cl)Cl)ccc1Cl", "10.2%"],
  ["O=C(c1ccc(Cl)c([N+](=O)[O-])c1)C(Cl)Cl", "41.7%"],
  ["CCOc1ccc(C(=O)C(Cl)Cl)cc1[N+](=O)[O-]", "Active"],
  ["O=C(c1ccco1)C(Cl)Cl", "inactive"],
  ["CCCOc1ccc(C(=O)C(Cl)Cl)cc1[N+](=O)[O-]", "Active"],
  ["Cc1ccc(C(=O)C(Cl)Cl)cc1", "19.7%"],
  ["COc1ccc(C(=O)C(Cl)Cl)cc1[N+](=O)[O-]", "Active"],
  ["Cc1ccc(C(=O)C(Cl)Cl)cc1[N+](=O)[O-]", "50.5%"],
  ["CC(C)c1ccc(C(=O)C(Cl)Cl)cc1", "59.9%"],
  ["O=C(c1ccc(Cl)c(Cl)c1)C(Cl)Cl", "inactive"],
  ["O=C(c1ccccc1Br)C(Cl)Cl", "inactive"],
  ["CCCCc1ccc(C(=O)C(Cl)Cl)cc1[N+](=O)[O-]", "inactive"]
]}

---

- System: NCI-H1975
- experimental protocol: Antiproliferative activity against human NCI-H1975 cells assessed as inhibition of cell proliferation after 72 hrs by MTT assay
- Type: functional, cell-based
- cond: NCI-H1975, 72 h
pIC50: −log10 of the molar value.
pIC50 listing for selected compounds.

{"columns": ["structure string", "pIC50"],
 "data": [
  ["O=C(c1cccc(CCl)c1)C(Cl)Cl", 6.70],
  ["CCCOc1ccc(C(=O)C(Cl)Cl)cc1", 5.70],
  ["CC(C)c1ccc(C(=O)C(Cl)Cl)cc1[N+](=O)[O-]", 5.80],
  ["CCc1ccc(C(=O)C(Cl)Cl)cc1[N+](=O)[O-]", 5.76],
  ["O=C(c1ccccc1)C(Cl)Cl", 5.10],
  ["CC(C)Oc1ccc(C(=O)C(Cl)Cl)cc1[N+](=O)[O-]", 5.90],
  ["COc1ccc(C(=O)C(Cl)Cl)cc1Cl", 5.70],
  ["O=C(c1ccc(-c2ccccc2)cc1)C(Cl)Cl", 5.70]
]}

---

- System: NCI-H1975
- experimental protocol: Antiproliferative activity against human NCI-H1975 cells assessed as inhibition of cell proliferation at 6 uM after 72 hrs by MTT assay relative to control
- Type: functional
- cond: NCI-H1975, 72 h
Would you please tag the item Criterion met when its inhibition at 6 µM is 90% or above, and Criterion not met when it is below?

{"columns": ["structure string", "assigned class"],
 "data": [
  ["O=C(c1ccccn1)C(Cl)Cl", "Criterion not met"],
  ["N#Cc1ccc(C(=O)C(Cl)Cl)cc1", "Criterion met"],
  ["O=C(c1cccc(C(F)(F)F)c1)C(Cl)Cl", "Criterion met"],
  ["O=C(c1cccs1)C(Cl)Cl", "Criterion not met"],
  ["CCCCOc1ccc(C(=O)C(Cl)Cl)cc1[N+](=O)[O-]", "Criterion met"],
  ["O=C(c1ccc(F)c([N+](=O)[O-])c1)C(Cl)Cl", "Criterion not met"],
  ["O=C(c1ccc(F)cc1F)C(Cl)Cl", "Criterion met"],
  ["O=C(c1ccc([N+](=O)[O-])cc1)C(Cl)Cl", "Criterion met"],
  ["O=C(c1ccc(OCCCBr)c([N+](=O)[O-])c1)C(Cl)Cl", "Criterion met"],
  ["CCCOc1ccc(C(=O)C(Cl)Cl)cc1", "Criterion met"],
  ["O=C(c1ccc(Br)cc1)C(Cl)Cl", "Criterion not met"],
  ["O=C(c1ccco1)C(Cl)Cl", "Criterion not met"],
  ["O=C(c1ccccc1Cl)C(Cl)Cl", "Criterion not met"],
  ["O=C(c1ccc(Br)c([N+](=O)[O-])c1)C(Cl)Cl", "Criterion not met"],
  ["Cc1ccccc1NC(=O)C(Cl)Cl", "Criterion not met"],
  ["O=C(c1ccc(OCCBr)c([N+](=O)[O-])c1)C(Cl)Cl", "Criterion not met"],
  ["O=C(c1ccc(OCc2ccccc2)c([N+](=O)[O-])c1)C(Cl)Cl", "Criterion met"],
  ["O=C(c1ccc(OCCCBr)cc1)C(Cl)Cl", "Criterion met"],
  ["O=C(c1cccc(Cl)c1)C(Cl)Cl", "Criterion met"],
  ["CCCOc1ccc(C(=O)C(Cl)Cl)cc1[N+](=O)[O-]", "Criterion not met"],
  ["O=C(c1ccccc1C(F)(F)F)C(Cl)Cl", "Criterion not met"],
  ["CCCCCOc1ccc(C(=O)C(Cl)Cl)cc1", "Criterion met"],
  ["O=C(Nc1ccccc1)C(Cl)Cl", "Criterion not met"],
  ["CC(C)c1ccc(C(=O)C(Cl)Cl)cc1", "Criterion met"]
]}

Cited source: ChEMBL document CHEMBL4265965
